Below is a list of entries, each paired with its recorded OD450 value.
assay system: T1, human MSLN-R1-his protein (human, UniProt Q13421 296-390)
T1 construct: Made in HEK293E cells, purified on nickel column; also called hMSLN-R1-his; human MSLN-R1 protein; not shown: His tag
T1 chain: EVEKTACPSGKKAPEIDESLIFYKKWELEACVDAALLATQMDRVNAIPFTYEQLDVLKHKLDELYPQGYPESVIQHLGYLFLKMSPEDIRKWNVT
protocol text: ELISA, coated antigen, antibody 20 nM
Lab note: record the figure alone, no unit after it.

Study these solved cases before continuing.
binder: S009-F7.23.19 chimeric antibody (antibody, human IgG1, kappa, V domains shown, Human-murine chimeric antibody, human IgG1/kappa constant regions) VH: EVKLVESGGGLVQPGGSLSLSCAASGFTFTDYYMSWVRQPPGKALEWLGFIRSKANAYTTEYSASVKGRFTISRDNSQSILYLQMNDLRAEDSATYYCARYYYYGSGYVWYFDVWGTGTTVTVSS VL: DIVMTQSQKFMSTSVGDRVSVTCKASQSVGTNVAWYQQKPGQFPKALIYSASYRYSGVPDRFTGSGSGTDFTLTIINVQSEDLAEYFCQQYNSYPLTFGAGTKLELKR
OD450: 0.05
--
binder: S009-F7.67.12 chimeric antibody (antibody, human IgG1, kappa, V domains shown, Human-murine chimeric antibody, human IgG1/kappa constant regions) VH: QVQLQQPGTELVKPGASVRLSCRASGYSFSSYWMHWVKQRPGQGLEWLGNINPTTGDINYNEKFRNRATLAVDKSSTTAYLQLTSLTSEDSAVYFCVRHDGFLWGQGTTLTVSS VL: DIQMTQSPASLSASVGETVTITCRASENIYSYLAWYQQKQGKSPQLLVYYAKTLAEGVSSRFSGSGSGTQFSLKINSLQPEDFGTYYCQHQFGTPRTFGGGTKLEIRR
OD450: 0.05
--
binder: S009-F7.6.17 chimeric antibody (antibody, human IgG1, kappa, V domains shown, Human-murine chimeric antibody, human IgG1/kappa constant regions) VH: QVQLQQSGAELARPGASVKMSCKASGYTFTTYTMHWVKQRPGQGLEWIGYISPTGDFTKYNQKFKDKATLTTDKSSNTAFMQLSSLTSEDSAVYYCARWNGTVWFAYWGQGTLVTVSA VL: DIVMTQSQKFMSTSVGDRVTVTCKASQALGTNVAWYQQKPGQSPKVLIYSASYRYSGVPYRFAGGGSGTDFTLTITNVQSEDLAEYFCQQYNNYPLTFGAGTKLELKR
OD450: 0.06
--
binder: S009-F7.18.10 chimeric antibody (antibody, human IgG1, kappa, V domains shown, Human-murine chimeric antibody, human IgG1/kappa constant regions) VH: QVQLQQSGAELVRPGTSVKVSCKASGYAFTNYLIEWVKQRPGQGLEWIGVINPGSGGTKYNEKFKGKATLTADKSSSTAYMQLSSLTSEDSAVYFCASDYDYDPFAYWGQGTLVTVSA VL: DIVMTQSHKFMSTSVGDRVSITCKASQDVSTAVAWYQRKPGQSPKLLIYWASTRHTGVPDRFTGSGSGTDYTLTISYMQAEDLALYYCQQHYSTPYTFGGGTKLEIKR
OD450: 2.45

Input: Look at this binder and give its reported OD450. S009-F7.30.5 chimeric antibody (antibody, human IgG1, kappa, V domains shown, Human-murine chimeric antibody, human IgG1/kappa constant regions) VH: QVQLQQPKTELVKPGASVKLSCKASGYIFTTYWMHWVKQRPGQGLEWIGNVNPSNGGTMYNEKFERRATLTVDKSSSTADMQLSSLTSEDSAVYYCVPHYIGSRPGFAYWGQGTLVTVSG VL: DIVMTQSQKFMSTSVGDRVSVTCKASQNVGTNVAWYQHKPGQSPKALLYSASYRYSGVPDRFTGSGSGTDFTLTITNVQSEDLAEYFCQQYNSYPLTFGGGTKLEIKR
Output: 0.1
